# melting point per entry

Recorded results for 6 compounds are shown here.
MOLECULAR_STRING | MEASURED
COc1ccc2nc(N3CCN(Cc4ccc(Cl)cc4)CC3)cc(C)c2c1.Cl | 250 to 253 °C
Clc1ccc(CN2CCN(c3cnc4ccccc4n3)CC2)cc1.O=C(O)C(=O)O | 209 to 212 °C
Br.Cc1ccc2c(C)cc(N3CCN(Cc4ccc(Cl)cc4)CC3)nc2c1 | 295 to 296 °C
CC(C)c1ccc(CN2CCN(c3ccc4ccccc4n3)CC2)cc1.Cl | 270 to 271 °C
Br.FC(F)(F)c1ccc(CN2CCN(c3ccc4ccccc4n3)CC2)cc1 | 271 to 273 °C
Br.c1ccc2nc(N3CCN(Cc4ccc5c(c4)OCO5)CC3)ccc2c1 | 279 to 280 °C

// sample `Fc1ccc(CN2CCN(c3cc(F)c4ccccc4n3)CC2)cc1.O=C(O)C(=O)O` , its melting point was 191 to 193 °C

// sample `Fc1cc(N2CCN(Cc3ccccc3)CC2)nc2ccccc12.O=C(O)C(=O)O` , its melting point was 186 to 187 °C

// sample `Cl.Clc1ccc(CN2CCN(c3ccc4ccccc4c3)CC2)cc1` , its melting point was 216 to 218 °C

// sample `CC(C)(C)c1ccc(CN2CCN(c3ccc4ccccc4n3)CC2)cc1.Cl` , its melting point was 285 to 287 °C

// sample `Br.Clc1ccc(CN2CCN(c3ccc4ccccc4n3)CC2)cc1` , its melting point was 268 to 271 °C

----------
# melting point per entry

MOLECULAR_STRING | melting point
Br.Fc1cccc(CN2CCN(c3ccc4ccccc4c3)CC2)c1 | 253 to 255 °C
Cc1ccc(CN2CCN(c3ccc4ccccc4n3)CC2)cc1.Cl | 278 to 280 °C

// sample `Br.Cc1cc(N2CCN(Cc3ccc(Cl)cc3)CC2)nc2ccccc12` , its melting point was 215 to 217 °C

// sample `Br.Cc1ccc(CN2CCN(c3ccc4ccccc4c3)CC2)cc1` , its melting point was 222 to 223 °C
